Biological target: Tyrosine-protein phosphatase non-receptor type 1 (Homo sapiens)
Test: Inhibition of recombinant human PTP1B using p-nitrophenyl phosphate as substrate at 10 uM after 30 mins relative to control
quantity_kind: inhibition (%)
Lab book: enter the figure in %, no units written.

## Input Entry CC(C)=CCc1c(O)cc(O)c2c(=O)c(-c3ccc(O)cc3O)coc12 : reported inhibition = ?
## Output 34

----------
Biological target: Mushroom tyrosinase (Agaricus bisporus) (UniProt O42713+Q00024+C7FF04+C7FF05)
Assay: Inhibition of mushroom tyrosinase at 10 uM using L-tyrosine as substrate incubated for 15 mins followed by substrate addition relative to control
Rule: inhibition under 9% gives class 0, otherwise class 1.

# mol, category_label
records = [
    ("CC(C)=CCc1cc(-c2coc3c(CC=C(C)C)c(O)cc(O)c3c2=O)cc(O)c1O", "class 0"),
    ("CC(C)=CCc1c(O)ccc(-c2coc3cc(O)c(CC=C(C)C)c(O)c3c2=O)c1O", "class 0"),
    ("CC(C)=CCc1cc([C@@H]2CC(=O)c3ccc(O)cc3O2)ccc1O", "class 0"),
    ("COc1c(/C=C/C(=O)c2ccc(O)c(O)c2)ccc(O)c1CC=C(C)C", "class 1"),
    ("O=C1C[C@@H](c2ccc(O)cc2)Oc2cc(O)ccc21", "class 0"),
]

## Input Check if inhibition >= 9% (inclusive). Item: CC(C)=CCc1c(O)c(CC=C(C)C)c2oc(-c3ccc(O)cc3)cc(=O)c2c1O
## Output class 0

## Input Check if inhibition >= 9% (inclusive). Item: CC1(C)C=Cc2cc(-c3coc4cc(O)cc(O)c4c3=O)cc(O)c2O1
## Output class 1

## Input Check if inhibition >= 9% (inclusive). Item: COc1cc(O)ccc1/C=C/C(=O)c1ccc(O)cc1
## Output class 1

## Input Check if inhibition >= 9% (inclusive). Item: CC(C)=CCc1c(O)c(CC=C(C)C)c2occ(-c3ccc(O)cc3)c(=O)c2c1O
## Output class 0

## Input Check if inhibition >= 9% (inclusive). Item: CC1(C)C=Cc2cc(/C=C/C(=O)c3ccc(O)cc3O)ccc2O1
## Output class 0

## Input Check if inhibition >= 9% (inclusive). Item: CC(C)=CCc1c(O)ccc(-c2coc3c(CC=C(C)C)c(O)cc(O)c3c2=O)c1O
## Output class 0

## Input Check if inhibition >= 9% (inclusive). Item: COc1ccc(-c2coc3cc(O)ccc3c2=O)cc1
## Output class 1

## Input Check if inhibition >= 9% (inclusive). Item: CC1(C)C=Cc2c(ccc(-c3coc4cc(O)ccc4c3=O)c2O)O1
## Output class 0
